Each entry below lists one item and its recorded pIC50 value.
- ASSAYED_TARGET: UniProt P56817
- TEST_DESCRIPTION: In vitro enzymatic BACE FRET (fluorescence resonance energy transfer) assay
- Assay type: biochemical
- CONDITION_INFO: average IC50, enzyme assay; read-out: BACE 1 FRET assay
Entry type: numeric. Quantity: pIC50, the -log10 of concentration in molar units.

Solved entries:
# MOLECULAR_STRING, pIC50
measured = [
    ("CC(C)(C)/C=C/c1ccc2c(c1)[C@]1(COC(N)=N1)c1cc(-c3cncnc3)ncc1O2", 8.40),
    ("COc1nc(F)cc2c1Oc1ccc(-c3cccnc3)cc1[C@]21COC(N)=N1", 9.40),
    ("CC1(C)CC(c2cnc3c(c2)[C@]2(CSC(N)=N2)c2cc(-c4cccnc4F)ccc2O3)=CCO1", 9.22),
    ("NC1=N[C@@]2(CO1)c1cc(C3=CCOCC3)cc(F)c1Oc1ccc(-c3cncnc3)c(F)c12", 5.44),
    ("NC1=N[C@@]2(CS1)c1cc(-c3cccnc3)c(F)cc1Oc1c(F)cc(C3=CCCOC3)cc12", 9.52),
    ("NC1=N[C@@]2(CO1)c1cc(-c3cccnc3F)c(F)cc1Oc1ncc(-c3ccc(F)nc3)cc12", 8.62),
    ("NC1=N[C@@]2(CO1)c1cc(-c3cccnc3F)ccc1Oc1ncc(N3CCC(F)(F)CC3)cc12", 8.68),
]

Continue with the compound presented below.
Ask | Find the recorded pIC50 belonging to NC1=N[C@@]2(CO1)c1cc(-c3c(F)ccnc3F)ccc1Oc1cnc(C3=CCCOC3)cc12 and report it.
Reply | 9.22

---

- ASSAYED_TARGET: Beta Secretase enzyme (BACE) (Homo sapiens)
- Sequence (P56817 46-501, species assumed): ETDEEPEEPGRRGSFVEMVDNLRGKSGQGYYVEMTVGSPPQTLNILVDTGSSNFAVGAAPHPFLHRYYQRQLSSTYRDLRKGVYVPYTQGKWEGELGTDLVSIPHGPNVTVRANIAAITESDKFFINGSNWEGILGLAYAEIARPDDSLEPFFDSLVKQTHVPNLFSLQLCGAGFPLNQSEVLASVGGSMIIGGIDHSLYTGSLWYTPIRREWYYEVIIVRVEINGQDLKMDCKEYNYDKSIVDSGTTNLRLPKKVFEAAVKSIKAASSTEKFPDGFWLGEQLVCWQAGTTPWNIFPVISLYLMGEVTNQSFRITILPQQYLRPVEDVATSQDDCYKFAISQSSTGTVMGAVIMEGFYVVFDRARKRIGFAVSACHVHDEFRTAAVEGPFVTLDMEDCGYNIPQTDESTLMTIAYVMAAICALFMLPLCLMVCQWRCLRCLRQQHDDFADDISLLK
- TEST_DESCRIPTION: In vitro enzymatic BACE FRET (fluorescence resonance energy transfer) assay
- Format: biochemical
- CONDITION_INFO: BACE 1 FRET assay (uM)
Readings of IC50 for the listed compounds
Only the number, expressed in µM, is required.

Ask | Given COc1ccc(-c2cc3c(cn2)Oc2ccc(-c4cccnc4F)cc2[C@@]32COC(N)=N2)cc1F , state its recorded IC50.
Reply | 0.0014

Ask | What does the record list as IC50 for CC1(C)C=C(c2cc3c(cn2)Oc2ccc(-c4cncnc4)cc2[C@@]32COC(N)=N2)CCO1 ?
Reply | 0.0009

Ask | Find the recorded IC50 belonging to NC1=N[C@]2(CO1)c1cc(C3=CCOCC3)ccc1Oc1ccc(-c3cccnc3F)cc12 [Example 136, 2,2,2-trifluoroacetate] and report it.
Reply | 0.0026

Ask | Any idea what its IC50 is? The compound is NC1=N[C@@]2(CO1)c1cc(-c3cnccc3F)ccc1Oc1cnc(C3=CCOCC3)cc12
Reply | 0.0007

Ask | I have this compound here, NC1=N[C@@]2(CS1)c1cc(-c3cccnc3F)ccc1Oc1cnc(C3=CCOCC3)cc12 , and I need its recorded IC50.
Reply | 0.0007

Ask | # input compound: NC1=N[C@@]2(CO1)c1cc(-c3cncc(Cl)c3)ccc1Oc1c(F)cc(C3=CCOCC3)cc12 ; wanted: its IC50
Reply | 0.0003

---

- Test system: Abeta 40 in cerebrospinal fluid (CSF) and brain
- TEST_DESCRIPTION: In vivo inhibition of beta-secretase (Abeta 40 reduction in CSF and brain)
- CONDITION_INFO: rat, brain, Abeta 40, 10 mg/kg (10 mpk), after 4 hrs; read-out: Brain A-beta reduction % at 10 mg/kg
ENDPOINT_NAME: inhibition in vivo at 10 mg/kg (%)
# value in %; strip the unit string

Sample answers from the record:
# MOLECULE, OBSERVED
measured = [
    ("N#Cc1cccc(-c2ccc3c(c2)[C@@]2(COC(N)=N2)c2cc(N4CCC(F)(F)C4)ncc2O3)c1 [Example 134]", 45),
    ("CC1(C#Cc2cnc3c(c2)[C@]2(COC(N)=N2)c2cc(-c4cccc(C#N)c4)ccc2O3)COC1 [Example 127]", 45),
    ("NC1=N[C@@]2(CO1)c1cc(-c3cccnc3F)c(F)cc1Oc1c(F)cc(N3CCOCC3)cc12 (single isomer, unassigned) [Example 869]", 44),
]

Ask | State the recorded inhibition in vivo at 10 mg/kg for this entry: CC1(C)C=C(c2cc3c(cn2)Oc2ccc(-c4cncc(F)c4)cc2[C@@]32COC(N)=N2)CCO1 [Example 135]
Reply | 44

---

- Tested on: Aβ40 in conditioned medium of cells stably expressing Amyloid Precursor Protein (APP)
- TEST_DESCRIPTION: In vitro BACE cell-based assay (Aβ40 in conditioned medium, sandwich ELISA)
- CONDITION_INFO: Homo sapiens, HEK293, average IC50; read-out: HEK cell assay
ENDPOINT_NAME: IC50 (nM)
Numbers only; they are read as nM.

Some solved entries appear below for comparison.
# MOLECULAR_STRING, IC50 / nM
measured = [
    ("CC1(COc2cc3c(cc2F)Oc2ccc(-c4cccnc4F)cc2[C@@]32COC(N)=N2)COC1", 22.4),
    ("Cc1noc(C)c1-c1cccc(-c2ccc3c(c2)[C@@]2(COC(N)=N2)c2cc(C4=CCOCC4)ncc2O3)c1", 529),
    ("C[C@@](C#Cc1cnc2c(c1)[C@]1(COC(N)=N1)c1cc(-c3cccnc3F)ccc1O2)(CO)CCl", 9),
    ("NC1=N[C@@]2(CS1)c1cc(-c3cccnc3F)ccc1Oc1cnc(N3CCOCC3)cc12", 14),
    ("Cn1cc(-c2cc3c(cn2)Oc2ccc(-c4ccc(F)nc4)cc2[C@@]32COC(N)=N2)cn1", 42.4),
]

Ask | Requested read-out: IC50. Entry: C[Si](C)(C)c1cc2c(nc1F)Oc1ccc(Br)cc1[C@@]21COC(N)=N1
Reply | 10000

Ask | Which IC50 is listed for COc1nc(-c2ccncc2)cc2c1Oc1ccc(-c3cccnc3F)cc1[C@@]21COC(N)=N1 ?
Reply | 70

Ask | What does the record list as IC50 for COC(C)(C)COc1cnc2c(c1)[C@]1(COC(N)=N1)c1cc(-c3cc(Cl)ccc3F)ccc1O2 ?
Reply | 5.3

Ask | Return reported IC50; argument: CC#Cc1cncc(-c2ccc3c(c2)[C@@]2(COC(N)=N2)c2cc(-c4ccc(C)nc4)nc(F)c2O3)c1
Reply | 4

Ask | Item under review: NC1=N[C@@]2(CO1)c1cc(-c3cccnc3F)ccc1Oc1c(F)cc([C@H]3CCCOC3)cc12 . Reported IC50?
Reply | 21.7

Ask | Need IC50 of NC1=N[C@@]2(CO1)c1cc(-c3ccc(F)nc3)ccc1Oc1c(F)cc(OC[C@H]3CC3(F)F)cc12 , thanks.
Reply | 71.8

Ask | Please report the recorded IC50 for Cc1cnc(F)c(-c2ccc3c(c2)[C@@]2(COC(N)=N2)c2cc(N4CCOCC4)cc(F)c2O3)c1 .
Reply | 6

Ask | Requested field: IC50. Item: COc1nc(C2=CCCOC2)cc2c1Oc1ccc(-c3cccnc3F)cc1[C@@]21COC(N)=N1
Reply | 21

Ask | What measured IC50 goes with CC1(C#Cc2cc3c(cn2)Oc2ccc(-c4cc(Cl)cnc4F)cc2[C@@]32COC(N)=N2)COC1 ?
Reply | 11.6

Ask | Bench note: what IC50 did COC(C)(C)COc1cnc2c(c1)[C@]1(COC(N)=N1)c1cc(-c3cccc(C(F)(F)F)c3)ccc1O2 show?
Reply | 23.9

Ask | Bench note: what IC50 did NC1=N[C@]2(CO1)c1cc(N3CC[C@@H](F)C3)cc(F)c1Oc1ccc(-c3cncnc3)c(F)c12 show?
Reply | 67

Ask | Which measured IC50 value corresponds to NC1=N[C@@]2(CO1)c1cc(-c3cccnc3F)ccc1Oc1c(F)cc(C3=CC(=O)OC3)cc12 ?
Reply | 170

Ask | // IC50 lookup, key: CC#Cc1cncc(-c2ccc3c(c2)[C@@]2(COC(N)=N2)c2cc(-c4ccncc4)nc(OC)c2O3)c1
Reply | 9

Ask | // query IC50 value for entry NC1=N[C@@]2(CO1)c1cc(-c3cccnc3)ccc1Oc1c2cc(C2=CCOCC2)c(F)c1F
Reply | 24

Ask | Reported IC50 for Cc1cccc(Oc2ccc3c(c2)[C@@]2(COC(N)=N2)c2cc(C4=CCOCC4)cc(F)c2O3)n1 : what is it?
Reply | 751

Ask | # IC50 lookup, item CC1(C)C=C(c2cnc3c(c2)[C@]2(COC(N)=N2)c2c(ccc(-c4cccnc4F)c2F)O3)CCO1
Reply | 8.8

Ask | What value of measured IC50 is listed for Cc1cc(-c2cc3c(c(F)n2)Oc2ccc(-c4cccnc4F)cc2[C@@]32CSC(N)=N2)ccn1 ?
Reply | 49

Ask | Please look up its IC50: NC1=N[C@@]2(CS1)c1cc(-c3cccnc3)ccc1Oc1c(F)cc(N3CCOCC3)cc12
Reply | 18

Ask | I have this molecule here, CC1(C)C[C@@H](c2cc3c(cn2)Oc2ccc(-c4ccc(F)nc4)cc2[C@@]32COC(N)=N2)CCO1 , and I need its recorded IC50.
Reply | 176

Ask | Entry Cn1cc(-c2cnc3c(c2)[C@@]2(COC(N)=N2)c2c(ccc(-c4cccnc4F)c2F)O3)cn1 has what IC50?
Reply | 2130

Ask | Quick one: IC50 of CC1(C#Cc2ccc3c(c2)[C@@]2(COC(N)=N2)c2cc(C4=CCOCC4)ncc2O3)COC1 ?
Reply | 91
